Below, each entry is listed with its recorded Activity.
# protocol.text: Induction of nitric oxide release in potassium phosphate buffer at pH 7.4 at 0.1 mM after 60 mins by Griess assay
# Type: physicochemical
# condition.info: pH 7.4, 1 h, 100 µM

# molecule, Activity
records = [
    ("CCCCC(OC(=O)CN1CCN(CCCCOc2ccc(-c3cc(=S)ss3)cc2)CC1)c1ccccc1C(=O)Oc1ccc(/C=C/C(=O)OCCCCCCO[N+](=O)[O-])cc1OC (racemic)", "4 µM"),
    ("CCCCC(OC(=O)CN1CCN(CCCCCCOc2ccc(-c3cc(=S)ss3)cc2)CC1)c1ccccc1C(=O)Oc1ccc(/C=C/C(=O)OCCCCO[N+](=O)[O-])cc1OC (racemic)", "4 µM"),
    ("CCCCC(OC(=O)CN1CCN(CCCCCOc2ccc(-c3cc(=S)ss3)cc2)CC1)c1ccccc1C(=O)Oc1ccc(/C=C/C(=O)OCCO[N+](=O)[O-])cc1OC (racemic)", "8.03 µM"),
    ("CCCCC(OC(=O)CN1CCN(CCCCOc2ccc(-c3cc(=S)ss3)cc2)CC1)c1ccccc1C(=O)Oc1ccc(/C=C/C(=O)OCCCCO[N+](=O)[O-])cc1OC (racemic)", "6.13 µM"),
    ("CCCCC(OC(=O)CN1CCN(CCCCCCOc2ccc(-c3cc(=S)ss3)cc2)CC1)c1ccccc1C(=O)Oc1ccc(/C=C/C(=O)OCCO[N+](=O)[O-])cc1OC (racemic)", "4.98 µM"),
]

---

# protocol.text: Induction of nitric oxide release in potassium phosphate buffer at pH 7.4 at 0.1 mM after 105 mins by Griess assay
# Assay type: physicochemical
# condition.info: pH 7.4, 1.75 h, 100 µM
Kindly apply the following: label 1 if Activity is less than 6 µM, label 0 in every other case.

# compound, assigned.class
measured = [
    ("CCCCC(OC(=O)CN1CCN(CCCCCCOc2ccc(-c3cc(=S)ss3)cc2)CC1)c1ccccc1C(=O)Oc1ccc(/C=C/C(=O)OCCO[N+](=O)[O-])cc1OC (racemic)", "label 0"),
    ("CCCCC(OC(=O)CN1CCN(CCCOc2ccc(-c3cc(=S)ss3)cc2)CC1)c1ccccc1C(=O)Oc1ccc(/C=C/C(=O)OCCCCO[N+](=O)[O-])cc1OC (racemic)", "label 1"),
    ("CCCCC(OC(=O)CN1CCN(CCCCCCOc2ccc(-c3cc(=S)ss3)cc2)CC1)c1ccccc1C(=O)Oc1ccc(/C=C/C(=O)OCCCCO[N+](=O)[O-])cc1OC (racemic)", "label 1"),
    ("CCCCC(OC(=O)CN1CCN(CCCCOc2ccc(-c3cc(=S)ss3)cc2)CC1)c1ccccc1C(=O)Oc1ccc(/C=C/C(=O)OCCCCCCO[N+](=O)[O-])cc1OC (racemic)", "label 1"),
    ("CCCCC(OC(=O)CN1CCN(CCCCCCOc2ccc(-c3cc(=S)ss3)cc2)CC1)c1ccccc1C(=O)Oc1ccc(/C=C/C(=O)OCCCCCCO[N+](=O)[O-])cc1OC (racemic)", "label 0"),
    ("CCCCC(OC(=O)CN1CCN(CCOc2ccc(-c3cc(=S)ss3)cc2)CC1)c1ccccc1C(=O)Oc1ccc(/C=C/C(=O)OCCCCCCO[N+](=O)[O-])cc1OC (racemic)", "label 0"),
    ("CCCCC(OC(=O)CN1CCN(CCCCOc2ccc(-c3cc(=S)ss3)cc2)CC1)c1ccccc1C(=O)Oc1ccc(/C=C/C(=O)OCCCCO[N+](=O)[O-])cc1OC (racemic)", "label 0"),
    ("CCCCC(OC(=O)CN1CCN(CCCCCOc2ccc(-c3cc(=S)ss3)cc2)CC1)c1ccccc1C(=O)Oc1ccc(/C=C/C(=O)OCCO[N+](=O)[O-])cc1OC (racemic)", "label 0"),
]
